Task for the reader: assign each of the following compounds its reported melting point.

Cc1cc(COc2nn3c(-c4cc(C)on4)nnc3c3ccccc23)no1 :: 243 to 245 °C
CNC(=S)Nc1cc(SC)ccc1N1CCOCC1 :: 132 to 133 °C
COc1ccc(/C(=C\C(=O)N2CCNCC2)c2ccccc2Cl)cc1 :: 108 to 110 °C
CCC(=O)c1cc2c(cc1O)CCCC2 :: 57 to 58 °C
COc1ccnc(CCc2nc3cc(-c4ccc(S(=O)(=O)N5CCC(C)CC5)cc4)cnc3[nH]2)c1 :: 186 to 188 °C

Provide each entry's melting point from the list below.
1. CCCCCCCCCCCCc1cnn(C(C(=O)O)c2ccccc2)n1 (centres undefined)
2. ClC(Cl)(Cl)c1nsc(N2CCCC2)n1
3. COc1ccccc1N1CCN(C(=O)OC(C)(C)C)CC1
4. CCCCS(=O)c1ncn(C(=O)N(CCC)CCC)n1 (centres undefined)
5. Cc1nc(N)[nH]c(=O)c1N1CCN(c2ccc(CN)cc2)CC1
6. CC1(C)CC(=C(c2ccc(O)cc2)c2ccc(/C=C/C(=O)O)cc2)CC(C)(C)C1
7. O=C(NCCN1CCCCC1)Nc1ccc(-c2cnc(COCc3cc4ccccc4o3)o2)cc1
8. CS(=O)(=O)c1ccc(-n2nc(CCCO)cc2-c2ccccc2)cc1

1. 94 to 98 °C
2. 106 to 107 °C
3. 70 to 71 °C
4. 39 to 40 °C
5. 281 to 282 °C
6. 219 to 220 °C
7. 102 to 104 °C
8. 120 to 123 °C

// melting point lookup, key: [N-]=[N+]=Nc1cc2ccccc2oc1=O
108 to 112 °C

---

READOUT KIND: melting point

O=C1N(C(c2ccccc2)c2ccccc2)c2ccccc2C12COc1ccc(F)cc12 (stereo unspecified) :: 182 to 184 °C
O=C1C2CCCC2=Nc2ccccc2N1Cc1ccc(F)cc1 (stereo unspecified) :: 134 to 137 °C
O=C(CBr)Nc1ccc(F)cc1C(=O)O :: 191 to 192 °C
O=C(O)C=C1CCC(n2nc(-c3c(-c4ccccc4)nn4ccccc34)ccc2=O)CC1 (stereo unspecified) :: 188 to 190 °C
Cc1cn(N=Cc2cccnc2)c(=O)[nH]1 :: 200 to 202 °C

// melting point lookup, key: CCCCCCCCCCCCCCCC1Cc2cc(C(=O)O)ccc2N1 (racemic)
102 to 104 °C

---

Task for the reader: assign each of the following compounds its reported melting point.

CC(Cl)(Cl)C(Cl)(Cl)c1cccc([N+](=O)[O-])c1 :: 75.5 to 77 °C
O=C(O)c1cccc(C(=O)Nc2ccc(-n3nc(C(F)(F)F)cc3C(F)(F)F)cc2)c1 :: 244 to 245 °C
Cc1cn(C(C)(C)C(=O)N(C)C)nc1-c1ccccc1F :: 112 to 114 °C
Cc1cc(O)nc(Oc2cc(C(F)(F)F)nn2C)c1 :: 159 °C
CCCCc1oc2ccc(C(=O)OC)cc2c1C(=O)c1ccc(OC)cc1 :: 75 to 78 °C

Provide each entry's melting point from the list below.
1. COC(=O)c1nc(-c2ccccc2)c(-c2ccc(=O)n(C(C)C)n2)cc1C#N
2. CC1CCc2c(N3CCCCC3)c(Cl)cc3c(=O)c(C(=O)O)cn1c23 (configuration not stated)
3. CONC(=N)c1nc(C)c(I)c(NCC(F)(F)F)n1
4. CNc1cc(Sc2ccc(O)cc2)c(N)cc1[N+](=O)[O-]
5. C=C(C)C(=O)OCCCc1ccc(-c2ccc(-c3ccc(OC(=O)C(=C)C)cc3F)c(F)c2)cc1

["136 to 138 °C", "246 to 248 °C", "150 to 152 °C", "206 °C", "67 °C"]

---

Task for the reader: assign each of the following compounds its reported melting point.

Guide cases for melting point, answers given:
COc1cc(F)c(F)cc1OCCN :: 44 to 46 °C
CC(=O)Oc1cnccc1CCCOc1cccnc1Oc1ccccc1 :: 79 to 80 °C

Provide each entry's melting point from the list below.
1. CC(C)Cc1sc(-c2nccs2)c2c1C(=O)CC(C)(C)C2
2. CC(C)c1cccc(C(C)C)c1NC(=O)CNC(c1ccccc1)c1ccc(C(=O)O)cc1 (stereo not given)
3. CC(CS)C(=O)Nc1cc(C(=O)O)ccn1 (stereo not given)
4. CC(C(=O)O)c1ccc2c(c1)CC(=O)c1ccccc1S2 (stereo not given)
5. CCN(CC)CC1CCCCN1CC(=O)N1c2ccccc2C(=O)Nc2cccnc21 (stereo not given)
6. C=CCc1c(O)c(C(=O)OC)cc(Cl)c1NC(C)=O
7. O=S1(=O)NCc2ccccc2O1

98 to 100 °C
245 to 246 °C
247 to 248 °C
130 to 132 °C
210 to 212 °C
189 to 190 °C
89 to 90 °C

Provide each entry's melting point from the list below.
1. CNc1ncc2cc(-c3c(Cl)cccc3Cl)c(=O)n(C)c2n1
2. Cc1c(C#N)cnc(N)c1C#N
3. O=C(N1CCN(c2ccncc2Cl)CC1)N1CCN(S(=O)(=O)c2ccc(F)cc2)CC1
4. O=C1NCCc2c(-c3ccc(F)cc3F)[nH]c3cccc1c23

1: 243 to 244 °C; 2: 222 to 223 °C; 3: 143 to 144 °C; 4: 196 to 197 °C

Provide each entry's melting point from the list below.
1. O=c1[nH]c(Cl)c(Cc2ccccc2)c(=O)n1Cc1ccccc1
2. CS(=O)(=O)c1ccc(C(=O)C2C(=O)CCCC2=O)c(Cl)c1C1=NOC(Cc2ccccc2)C1 (stereo not given)

1. 146 to 148 °C
2. 72 to 76 °C

---

Task for the reader: assign each of the following compounds its reported melting point.

Guide cases for melting point, answers given:
COc1cc2c(cc1OC)C(=O)C(C#N)C2 (stereo unspecified) :: 177 to 179 °C
CC(C)(C)NC(=O)NC(C)(C)C#N :: 204 to 205 °C
COCCNC(N)=Nc1ccccc1N1CCCCC1 :: 218 to 220 °C
CC(=O)OCc1cn(-c2ccccc2)nc1OCc1ccccc1 :: 74 to 75 °C
CC(C)(C)c1ccc(S(=O)(=O)C(CCl)Sc2ccccc2)cc1 (stereo unspecified) :: 104 to 106 °C

Provide each entry's melting point from the list below.
1. CCCCCCCCCCCCCCCCCCOC[C@@H](O)COC(=O)CCCCl
2. O=C1NCCc2ccc(OCCCN3CCCN(c4cccc(Cl)c4Cl)CC3)cc21

1: 48 °C; 2: 116 to 117 °C

Provide each entry's melting point from the list below.
1. CC(C)CCCC(O)(Cn1cncn1)C(C)(C)C (stereo unspecified)
2. Cc1cc(N)cc2c1NC(=O)CC2C (stereo unspecified)
3. O=C(O)c1ccc(-c2ccc3cc(O)c(C45CC6CC(CC(C6)C4)C5)cc3c2)cc1O

1: 45 to 48 °C; 2: 207 to 210 °C; 3: 261 to 264 °C

// melting point lookup, key: c1ccc(CN(c2ccccc2)c2cccc3ccccc23)cc1
120 to 123 °C

---

READOUT KIND: melting point

Guide cases for melting point, answers given:
CCSc1nc(-c2ccccc2)cc2nnc(C)n12 :: 210 to 212 °C
Cc1cc2c(Cl)cc(F)c(-n3c(=O)cc(C(F)(F)F)n(C)c3=O)c2o1 :: 196 to 197 °C

Provide each entry's melting point from the list below.
1. CN1C(=O)C2CC(c3ccc([N+](=O)[O-])cc3)(C2)C1=O
2. COc1c(Cl)ccc(-c2cc(N)c(Cl)c(C(=O)N3CCCO3)n2)c1F
3. Cc1c2ccccc2c(O[Si](C)(C)C(C)(C)C)c2occ(CCC=O)c12
4. O=C(O)COc1ccc(C(=O)c2ccc(Cl)c(Cl)c2)c(Cl)c1Cl

["185 to 188 °C", "204 to 207 °C", "152 to 154 °C", "165 to 167 °C"]

Provide each entry's melting point from the list below.
1. C=CCNC(=O)NNC(=O)c1cccnc1
2. CC(Br)=C(c1ccc(F)cc1)c1ccc(F)cc1
3. COc1ccc(C(=O)CCCCCl)cc1S(=O)(=O)Cl
4. Nc1ccc(Br)c(-c2nc3ncccc3o2)c1
5. CCCCCCCCCCCCCCOc1ccc(C(=O)OC)cc1Cl
6. CCOc1ccc(-c2nc(-c3cccc(C(C#N)C(=O)OC)n3)cs2)cc1OCC (centres undefined)
7. OCCOc1cccc2ncccc12

1. 165 to 167 °C
2. 53 to 54 °C
3. 69 to 70 °C
4. 172 to 174 °C
5. 42 to 43 °C
6. 240 to 242 °C
7. 109 to 111 °C

Provide each entry's melting point from the list below.
1. Nc1ccc(-c2cccnc2)c(C(F)(F)F)c1
2. CC1(c2nnn[nH]2)CC(Cl)(I)C=CC1N (centres undefined)
3. O=C(Nc1c[nH]nc1C(=O)NC1CCCC1)c1ccccn1

1: 92 to 93 °C; 2: 205 to 208 °C; 3: 240 to 241 °C

Provide each entry's melting point from the list below.
1. CCN(CC)Cc1[nH]c(C)c(-c2ccnc(Nc3ccc(F)cc3)n2)c1C
2. COC(=O)c1ccnc(OCc2nc(-c3ccccc3)oc2C)c1
3. C[C@@H](Nc1ncnc2cc(N)ncc12)c1ccccc1
4. COC(=O)Cc1ccccc1N(Cc1ccc(C)cc1)c1c(Cl)cccc1Cl
5. O=C(Oc1ccc(O)c([N+](=O)[O-])c1)c1ccccc1
6. N#Cc1cnc2c(c1)[nH]c(=O)n2[C@H]1CC[C@H](O)CC1

["71.9 to 74.2 °C", "106 to 107 °C", "232 °C", "113 to 114 °C", "97 °C", "274 to 275 °C"]

Values were extracted from a melting point compilation (Tetko et al.; mined from patent text by program, amines drawn as free bases though some values may be those of a salt).
